Cited source: patent US20140221282A1

# target_or_system: T1, amylin receptor of rat nucleus accumbens membranes (rat)
# T1 chain 1: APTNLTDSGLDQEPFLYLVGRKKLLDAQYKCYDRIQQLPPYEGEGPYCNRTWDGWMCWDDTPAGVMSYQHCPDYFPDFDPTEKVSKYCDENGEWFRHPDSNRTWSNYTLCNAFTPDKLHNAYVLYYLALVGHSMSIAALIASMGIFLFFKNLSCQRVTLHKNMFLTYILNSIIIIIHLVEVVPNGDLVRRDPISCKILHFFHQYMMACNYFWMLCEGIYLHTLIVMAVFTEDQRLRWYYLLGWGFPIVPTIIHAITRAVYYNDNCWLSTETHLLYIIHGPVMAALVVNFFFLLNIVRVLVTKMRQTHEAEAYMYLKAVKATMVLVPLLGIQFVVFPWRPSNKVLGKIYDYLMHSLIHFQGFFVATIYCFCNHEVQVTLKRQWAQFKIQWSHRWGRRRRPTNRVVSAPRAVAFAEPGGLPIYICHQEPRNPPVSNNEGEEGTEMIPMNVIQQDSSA
# T1 chain 2: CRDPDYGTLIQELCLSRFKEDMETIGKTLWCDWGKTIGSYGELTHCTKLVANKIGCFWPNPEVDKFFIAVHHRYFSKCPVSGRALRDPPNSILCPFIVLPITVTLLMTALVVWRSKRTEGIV
# experimental_details: competition with 125I-rat amylin, rat nucleus accumbens membranes
Ends that are not written are not given here. mPEG40KD = methoxy-PEG of 40 kDa
So basically, if IC50 comes in under 50 nM it's class 1, and if it's 50 nM or more it's class 0.

binder: CNTATCATQRLANFLVHSSNNFGPILPK(mPEG40KD)TNVGSNTY-NH2 (ends and bridges not checked, also called Cmpd 84) [[K^29(mPEG40KD)]-Cmpd 66]
classification: class 1
--
binder: CNTATCATQRLANFLVRSSNNLGPVLPPTK(mPEG40KD)VGSNTY-NH2 (ends and bridges not checked, also called Cmpd 74) [[K^31(mPEG40KD)]-Cmpd 56]
classification: class 0
--
binder: CNTATCATQRLANFLVHSSNNFGK(mPEG40KD)ILPPTNVGSNTY-NH2 (ends and bridges not checked, also called Cmpd 81) [[K^25(mPEG40KD)]-Cmpd 63]
classification: class 1
--
binder: CNTATCATQRLANFLVHSSNNFGPILK(mPEG40KD)PTNVGSNTY-NH2 (ends and bridges not checked, also called Cmpd 83) [[K^28(mPEG40KD)]-Cmpd 65]
classification: class 0
--
binder: CNTATCATQRLANFLVHSSNNFK(mPEG40KD)PILPPTNVGSNTY-NH2 (ends and bridges not checked, also called Cmpd 80) [[K^24(mPEG40KD)]-Cmpd 62]
classification: class 0
--
binder: CNTATCATQRLANFLVHSSNNK(mPEG 40 kDa)GPILPPTNVGSNTY-NH2 (ends and bridges not checked, also called Cmpd 86) [[K^23(mPEG40KD)]-Cmpd 58]
classification: class 0
--
binder: CNTATCATQRLANFLVRSSNNLGPK(mPEG40KD)LPPTNVGSNTY-NH2 (ends and bridges not checked, also called Cmpd 72) [[K^26(mPEG40KD)]-Cmpd 54]
classification: class 0
--
binder: CNTATCATQRLANFLVHSSNK(mPEG 40 kDa)FGPILPPTNVGSNTY-NH2 (ends and bridges not checked, also called Cmpd 85) [[K^22(mPEG40KD)]-Cmpd 58]
classification: class 0
--
binder: CNTATCATQRLANFLVHSSNNFGPILPPK(mPEG40KD)NVGSNTY-NH2 (ends and bridges not checked, also called Cmpd 87) [[K^30(mPEG40KD)]-Cmpd 58]
classification: class 0
